We begin with a simple list: items and their reported pKi.
TESTED TARGET: Neuronal acetylcholine receptor; alpha4/beta2 (Rattus norvegicus, UniProt P09483+P12390)
Sequence (P09483 whole entry): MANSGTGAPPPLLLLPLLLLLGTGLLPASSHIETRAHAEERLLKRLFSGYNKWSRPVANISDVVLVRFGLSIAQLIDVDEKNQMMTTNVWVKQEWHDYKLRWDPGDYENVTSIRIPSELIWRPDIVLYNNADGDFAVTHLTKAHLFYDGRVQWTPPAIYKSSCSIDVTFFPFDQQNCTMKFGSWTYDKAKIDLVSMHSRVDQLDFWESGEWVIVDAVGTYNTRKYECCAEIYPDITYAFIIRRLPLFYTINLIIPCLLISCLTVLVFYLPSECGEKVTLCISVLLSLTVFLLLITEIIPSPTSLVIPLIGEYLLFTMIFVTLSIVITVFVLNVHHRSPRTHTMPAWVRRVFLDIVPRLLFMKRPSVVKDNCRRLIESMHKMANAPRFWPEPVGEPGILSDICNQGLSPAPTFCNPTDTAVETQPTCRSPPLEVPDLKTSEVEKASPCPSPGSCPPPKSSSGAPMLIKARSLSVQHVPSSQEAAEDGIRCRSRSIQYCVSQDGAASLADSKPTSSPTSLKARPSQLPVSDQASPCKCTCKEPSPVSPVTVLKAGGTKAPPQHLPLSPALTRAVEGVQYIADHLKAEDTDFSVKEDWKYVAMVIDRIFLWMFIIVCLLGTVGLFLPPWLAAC
Sequence (P12390 whole entry): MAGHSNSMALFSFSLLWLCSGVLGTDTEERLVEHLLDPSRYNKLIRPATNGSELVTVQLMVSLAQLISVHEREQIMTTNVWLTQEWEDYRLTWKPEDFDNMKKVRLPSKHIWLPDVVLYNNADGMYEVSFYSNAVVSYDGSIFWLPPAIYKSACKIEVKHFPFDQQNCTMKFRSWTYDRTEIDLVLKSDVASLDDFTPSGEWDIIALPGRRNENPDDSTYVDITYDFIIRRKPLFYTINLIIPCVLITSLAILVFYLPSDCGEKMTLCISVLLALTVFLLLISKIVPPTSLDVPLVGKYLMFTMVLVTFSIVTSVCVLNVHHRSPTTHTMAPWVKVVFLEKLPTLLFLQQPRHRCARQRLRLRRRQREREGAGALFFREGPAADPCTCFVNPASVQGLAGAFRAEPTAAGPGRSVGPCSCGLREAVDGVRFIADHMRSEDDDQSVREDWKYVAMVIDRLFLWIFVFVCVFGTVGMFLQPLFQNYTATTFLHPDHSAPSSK
TEST DESCRIPTION: Affinity at alpha4-beta2 nACh receptors in rat brain (minus cerebellum) homogenates.
Type: tissue-based
pKi is a log-scale quantity: -log10 of the concentration expressed in molar.

Recorded pKi, per entry:
MOLECULE: c1cncc(C2=NCCC2)c1
OBSERVED VALUE: 5.48
//
MOLECULE: c1ccc(CN2CCCC2c2cccnc2)cc1 (stereo not drawn)
OBSERVED VALUE: 6.44
//
MOLECULE: CN1CCN=C1Cc1cnc2ccccc2c1
OBSERVED VALUE: 7.42
//
MOLECULE: CN1CCCC1c1ccc(-c2ccccc2)nc1 (stereo not drawn)
OBSERVED VALUE: 5.03
//
MOLECULE: CN1CCCC1c1cnc2ccccc2c1 (stereo not drawn)
OBSERVED VALUE: 7.96
//
MOLECULE: CN1CCN=C1Cc1ccc(Br)nc1
OBSERVED VALUE: 8.14
//
MOLECULE: CN1CCCC1c1ccc(Br)nc1 (stereo not drawn)
OBSERVED VALUE: 9.30

Okay, now this molecule:
Return pKi for the following molecule: CN1CCN=C1Cc1ccc(Cl)nc1
8.48
